- assay notes: gradient 5% acetonitrile 3 min, to 50% in 2 min, to 85% in 15 min, held 3 min, 100 µL/min
- condition summary: column: Zorbax Extend-C18 2.1 x 50 mm; eluents: water / acetonitrile, 0.1% formic acid
Give RP-LC retention time for every item shown.
Numbers only, in s.

Guide cases for RP-LC retention time, answers given:
molecule	RP-LC retention time (s)
CCOc1ccc(-c2noc(Cn3ccnc3)n2)cc1	635
COc1ccc(-c2nnc3sc(-c4cccnc4)nn23)cc1OC	695
CCOC(=O)c1cccc(NC(=O)Cn2c(=O)c(CCC(=O)NC3CCCC3)nc3ccccc32)c1	876
NC(=O)C(=O)c1cn(CC(=O)NC2CCCCC2)c2ccccc12	743
CCN1C(=O)c2cccnc2Sc2cc(NC(=O)c3ccccc3Cl)ccc21	828

List RP-LC retention time for every entry below, keeping the order given.
1. O=C(CCC(=O)OCc1ccc(Br)cc1)Nc1nc(-c2ccccc2)cs1
2. COc1nc2ccccc2nc1N1CCCC(C(=O)NC2CCCCCC2)C1 (stereo not given)
3. CC(C(O)c1ccc(O)cc1)N1CCC(Cc2ccccc2)CC1 (stereo not given)

Result:
1130
1090
718
